Quick reference for sensor-assay potency score (higher = more potent) among some sequences
# tgt: ZBTB8A
# assay text: pooled miR-30 sensor sort-seq; sequence = guide strand
# test conditions: shRNA
value kind: sensor-assay potency score (higher = more potent)

{"ordered residues": "TAGCGAATAATACATTTCGATG", "tgt": "ZBTB8A", "recorded value": -1.75}
{"ordered residues": "TTGACTTATAATGAGTAACTTC", "tgt": "ZBTB8A", "recorded value": -0.468}
{"ordered residues": "TACACTTATGACATCAGTCATC", "tgt": "ZBTB8A", "recorded value": -0.715}
{"ordered residues": "TTTTTAATGGACTCTTTCCTTG", "tgt": "ZBTB8A", "recorded value": -0.893}
{"ordered residues": "TAAAGTAGCCGCTACTAGCGAA", "tgt": "ZBTB8A", "recorded value": -0.929}
{"ordered residues": "TAAATCTTTTTCCACAAGCTTG", "tgt": "ZBTB8A", "recorded value": -1.26}

----------
# tgt: FNBP1L
# assay text: pooled miR-30 sensor sort-seq; sequence = guide strand
# test conditions: shRNA
Reported sensor-assay potency score (higher = more potent) by item:
value kind: sensor-assay potency score (higher = more potent)

{"ordered residues": "TAACTTTGCGTTCTGAGTCAGC", "tgt": "FNBP1L", "recorded value": -0.716}
{"ordered residues": "TAATTCACCATACACTCTGTGC", "tgt": "FNBP1L", "recorded value": -0.622}
{"ordered residues": "TTGTAGTTGCTTGTAAATCTGA", "tgt": "FNBP1L", "recorded value": -0.235}
{"ordered residues": "TTGTCTAAGCTGTCGAACTGAT", "tgt": "FNBP1L", "recorded value": -0.84}
{"ordered residues": "TAATGTAGAGAACTTCACCTTC", "tgt": "FNBP1L", "recorded value": -0.0833}
{"ordered residues": "TTTCTCTAGAGTTACATCTATG", "tgt": "FNBP1L", "recorded value": -0.933}
{"ordered residues": "TGACTTTTGACAATAGTCCTTT", "tgt": "FNBP1L", "recorded value": -0.217}

----------
# tgt: DMXL1
# assay text: pooled miR-30 sensor sort-seq; sequence = guide strand
# test conditions: shRNA
value kind: sensor-assay potency score (higher = more potent)

{"ordered residues": "TTGTTTCTGAAAACACTGCTAT", "tgt": "DMXL1", "recorded value": 0.009}
{"ordered residues": "TTTAACACTATGACATACTGAT", "tgt": "DMXL1", "recorded value": 0.376}
{"ordered residues": "TTTGTTTCTGAAAACACTGCTA", "tgt": "DMXL1", "recorded value": 0.164}
{"ordered residues": "TTCTACATTATACCAAACCTTC", "tgt": "DMXL1", "recorded value": -0.955}
{"ordered residues": "AAATAGTACATAATTGTCCCAT", "tgt": "DMXL1", "recorded value": 0.365}
{"ordered residues": "TAACATTTCCATAAGACGCTGC", "tgt": "DMXL1", "recorded value": 0.508}
{"ordered residues": "TTCATTTTCATTTAGACTCAGA", "tgt": "DMXL1", "recorded value": -0.406}
{"ordered residues": "TTCTATATCATCATCTACCCAA", "tgt": "DMXL1", "recorded value": -0.207}

----------
# tgt: POLN
# assay text: pooled miR-30 sensor sort-seq; sequence = guide strand
# test conditions: shRNA
Measured sensor-assay potency score (higher = more potent), listed per entry for reference.
value kind: sensor-assay potency score (higher = more potent)

{"ordered residues": "TCTATTTGAATGTAGATGCATG", "recorded value": -0.558}
{"ordered residues": "TTGCTCGTTATAAGAAACCGTT", "recorded value": -0.677}
{"ordered residues": "TTTTTGGTCAGCAGACAGCTGA", "recorded value": -1.02}
{"ordered residues": "TAATGGATGAAGGTCTCGCAGA", "recorded value": -0.869}
{"ordered residues": "TTGCCATAAACCATAATCCTTC", "recorded value": -1.02}
{"ordered residues": "TTTACTAACACCACAATTCCTC", "recorded value": -0.28}
{"ordered residues": "TTATAAGAAACCGTTCTCCTGC", "recorded value": 0.596}
{"ordered residues": "TTGATCTTGTGAACCTGCCTGT", "recorded value": 0.754}
{"ordered residues": "TTCATTATTTATATTCTCCATT", "recorded value": -0.758}
{"ordered residues": "TTTGTTTACTTGTTTTCTCTGA", "recorded value": -0.00359}

----------
# tgt: BRAP
# assay text: pooled miR-30 sensor sort-seq; sequence = guide strand
# test conditions: shRNA
Rule: y for sensor-assay potency score (higher = more potent) not less than -0.8, n for anything less.

{"ordered residues": "TTTAGCTGAGTGCACTTTCTTT", "assigned class": "y"}
{"ordered residues": "TAGGAGATCATTTAGTTTGTGC", "assigned class": "y"}
{"ordered residues": "TTCTCTATCCGAACTATCTTGT", "assigned class": "y"}
{"ordered residues": "TTTTACTTGCAACCAGTCGATG", "assigned class": "n"}
{"ordered residues": "TTTCTTTCCACAGACTGCTTTT", "assigned class": "y"}
{"ordered residues": "TTTCCTGAACACCACACTCAAA", "assigned class": "n"}
{"ordered residues": "TAAATATGAATACTCTAACTGT", "assigned class": "y"}

----------
# tgt: ITLN1
# assay text: pooled miR-30 sensor sort-seq; sequence = guide strand
# test conditions: shRNA
Response key: yes means sensor-assay potency score (higher = more potent) >= 0.1; no means sensor-assay potency score (higher = more potent) < 0.1.

{"ordered residues": "TGAACTGAACAAATCCCGCAGT", "tgt": "ITLN1", "assigned class": "yes"}
{"ordered residues": "ATGCACTAGGACATTCGTCTTT", "tgt": "ITLN1", "assigned class": "no"}
{"ordered residues": "TTCGTCTTTGATTTCCTTGCAG", "tgt": "ITLN1", "assigned class": "yes"}
{"ordered residues": "TTGTCAGTCCAACACTTTCCTT", "tgt": "ITLN1", "assigned class": "no"}
{"ordered residues": "TAACATTCTAGCTACTGGGTAA", "tgt": "ITLN1", "assigned class": "no"}
{"ordered residues": "TAGACCACAGGGATCACCGGGC", "tgt": "ITLN1", "assigned class": "yes"}
{"ordered residues": "TGTCAGTCCAACACTTTCCTTC", "tgt": "ITLN1", "assigned class": "no"}
{"ordered residues": "TTCCATATCCACTCCAATCAAA", "tgt": "ITLN1", "assigned class": "no"}

----------
# tgt: WDR33
# assay text: pooled miR-30 sensor sort-seq; sequence = guide strand
# test conditions: shRNA
Answer not satisfied if sensor-assay potency score (higher = more potent) is under -0.1, and satisfied if it is -0.1 or more.

{"ordered residues": "TAAACTGTCCCTGTGGACCTGG", "tgt": "WDR33", "assigned class": "not satisfied"}
{"ordered residues": "TTGAGGACCAGAACTACCTTGT", "tgt": "WDR33", "assigned class": "satisfied"}
{"ordered residues": "TTGTAGTCTATGGTTTTTCGGT", "tgt": "WDR33", "assigned class": "not satisfied"}
{"ordered residues": "TTCAATTTTAAGTTGCTCCAGA", "tgt": "WDR33", "assigned class": "satisfied"}
{"ordered residues": "TAGGATTATTCAACATTCCTAT", "tgt": "WDR33", "assigned class": "not satisfied"}
{"ordered residues": "TTTATTTTGCATCCAAGCCTGC", "tgt": "WDR33", "assigned class": "not satisfied"}
{"ordered residues": "TTAGATTATATCGATCTCGCAT", "tgt": "WDR33", "assigned class": "satisfied"}

----------
# tgt: METTL21C
# assay text: pooled miR-30 sensor sort-seq; sequence = guide strand
# test conditions: shRNA
value kind: sensor-assay potency score (higher = more potent)

{"ordered residues": "TAGATTAACCAGATAATCTTAA", "recorded value": -0.406}
{"ordered residues": "TAACTCTCTATGGATTCCTGGA", "recorded value": -0.728}
{"ordered residues": "TATCTTGTTGGATTCTTCTAGG", "recorded value": -0.565}
{"ordered residues": "TCATAGTCGGTGCTGAACCTGA", "recorded value": -0.238}
{"ordered residues": "TAAAAGATTGTATTGAAGGTTT", "recorded value": -0.706}
{"ordered residues": "TTAGATATTTAGATTAACCAGA", "recorded value": -0.625}
{"ordered residues": "TTAGAAATTAGAAAGTTTCTGC", "recorded value": 0.573}
{"ordered residues": "ATCTGTAGGAACAAATTTCTGG", "recorded value": -0.452}
